# Tested system: Saccharophagus degradans 2-40^T β-glucosidase Bgl1B, recombinant (6 histidine residues at C-terminus), SEQ ID NO: 1 (nucleotide SEQ ID NO: 2) (Saccharophagus degradans, UniProt Q21KX3)
# Sequence (Q21KX3 1-444): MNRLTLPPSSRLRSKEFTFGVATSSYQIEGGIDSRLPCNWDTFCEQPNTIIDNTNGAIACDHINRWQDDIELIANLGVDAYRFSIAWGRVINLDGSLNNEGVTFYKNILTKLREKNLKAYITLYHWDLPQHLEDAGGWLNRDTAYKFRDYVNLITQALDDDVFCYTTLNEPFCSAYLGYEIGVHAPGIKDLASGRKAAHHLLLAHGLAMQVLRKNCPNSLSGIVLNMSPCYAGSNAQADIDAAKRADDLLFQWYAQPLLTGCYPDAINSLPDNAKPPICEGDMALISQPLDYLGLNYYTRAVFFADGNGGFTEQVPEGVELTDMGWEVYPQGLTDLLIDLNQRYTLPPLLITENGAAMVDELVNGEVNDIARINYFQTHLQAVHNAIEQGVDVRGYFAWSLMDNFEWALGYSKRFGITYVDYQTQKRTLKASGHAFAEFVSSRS
# Test method notes: Enzymatic reaction rate of Bgl1B for various substrates (Lineweaver-Burk plot)
# Assay type: biochemical
# Particulars: pH 6, 40° C., substrate 0.1-0.4% (w/v)
Measured parameter: kcat (s⁻¹)

Compound: OC[C@H]1O[C@@H](O[C@H]2[C@H](O)[C@@H](CO)OC(O)[C@@H]2O)[C@H](O)[C@@H](O)[C@@H]1O (some centres unmarked)
Result value: 91
//
Compound: OC[C@H]1O[C@@H](O[C@H]2[C@H]3OC[C@@H]2OC(O)[C@H]3O)[C@H](O)[C@@H](O)[C@H]1O (some centres unmarked)
Result value: 0.26
//
Compound: OC[C@H]1O[C@@H](O[C@H]2[C@H](O)[C@@H](O)C(O)O[C@@H]2CO)[C@H](O)[C@@H](O)[C@@H]1O (some centres unmarked)
Result value: 13
//
Compound: OC[C@H]1O[C@@H](OC[C@H]2OC(O)[C@H](O)[C@@H](O)[C@@H]2O)[C@H](O)[C@@H](O)[C@@H]1O (some centres unmarked)
Result value: 0.88
//
Compound: OC[C@H]1O[C@@H](O[C@H]2[C@H](O)[C@@H](O)C(O)O[C@@H]2CO)[C@H](O)[C@@H](O)[C@H]1O (some centres unmarked)
Result value: 0.83
